Origin of the recorded values: PubChem BioAssay (NCI)

Would you kindly list growth for each of these molecules?
System: SF-539 CNS
Procedure text: NCI-60 one-dose screen, 48 h (100 = growth as untreated, 0 = no growth, -100 = all killed)
Experimental context: 10 µM unless noted
This is part of a sample that, as a whole, favours compounds with a hit. Of some 83,000 tested, about 20% had one in any assay.
Answers are plain numbers, in %.

{"Molecule": "CC(C)CC(NC(=O)C(CCCN=C(N)N)NC(=O)OCc1ccccc1)C(=O)NC(CNC(=O)/C=C/c1ccccc1)C(C)C (stereo not given)", "Value measured": 96.4}
{"Molecule": "CN1CCN(Cc2ccc(NC(=O)c3cncc(C#Cc4ncc5ccccn45)c3)cc2C(F)(F)F)CC1", "Value measured": -79.6}

Provide reported growth for each item, in the same order as listed.
1. N[C@@H](CO)C(=O)O
2. CCOC(CN1CCN(CC(C)C(=O)c2ccccc2)CC1)c1ccccc1 (stereo not given)

Result ::
[113, 111]

---

Tested on: PC-3 prostate
Procedure text: NCI-60 one-dose screen, 48 h
Experimental context: 10 µM unless noted
Compounds without any hit were thinned out: in the full panel of roughly 83,000, 20% have a hit. The source made the active and inactive calls. The calls were made as follows: active = growth percent below 10; inactive = the rest.
Returns: one label drawn from active, inactive

Query :: Look up the recorded call for Nc1c(C(=O)c2ccc(Br)cc2)sc2nc3c(cc12)CCCC3 in this test.
Result :: inactive

Query :: Look up the recorded call for FC1(F)CCN(Cc2c[nH]c3cc(Cl)ccc23)C[C@H]1CCc1ccccc1 in this test.
Result :: inactive

Query :: Look up the recorded call for N=C(N)c1ccc(-c2ccc(-c3cc(Cl)cc(Cl)c3)o2)nc1 in this test.
Result :: active

---

Would you kindly list growth for each of these molecules?
Test system: LOX IMVI melanoma
Procedure text: NCI-60 one-dose screen, 48 h (100 = growth as untreated, 0 = no growth, -100 = all killed)
Experimental context: 10 µM unless noted
Protocol: Growth inhibition of the LOX IMVI human tumor cell line is measured as a screen for anti-cancer activity. Cells are grown in 96 well plates and exposed to the test compound for 48 hours. Compounds are tested at a single concentration, which is 10^-5 M for most compounds. The reported endpoint is percent growth (GI% or GIPRCNT), where numbers from 0 - 100% represent growth inhibition, and numbers from -100% - 0 represent cell death. For example, a value of 40 represents 60% growth inhibition. […]
This is part of a sample that, as a whole, favours compounds with a hit. Of some 83,000 tested, about 20% had one in any assay.
Answers are plain numbers, in %.

Solved cases (5 shown):
{"Molecule": "O=c1c2sc3ccccc3c2nnn1-c1ccc(F)c(Cl)c1", "Unit label": "%", "growth": 58.1}
{"Molecule": "COC(=O)C1(C)COP(=O)(NC23CC4CC(CC(C4)C2)C3)OC1 (stereo unspecified)", "Unit label": "%", "growth": 98.2}
{"Molecule": "CCOC(=O)c1ccc(NCCC(=O)O)cc1", "Unit label": "%", "growth": 101}
{"Molecule": "CCN(C)CCCOc1ccc(/C(=C(\\C)Cc2cccc(OC)c2)c2ccc(OC(C)=O)cc2)cc1", "Unit label": "%", "growth": 97.2}
{"Molecule": "O=C(OCc1ccc2c(Cl)cc(Cl)c(O)c2n1)c1cc2ccccc2[nH]1", "Unit label": "%", "growth": -91.2}

The molecule Fc1ccc2nc(-c3ccc(-c4noc(-c5ccc(Cl)cc5)n4)cc3)[nH]c2c1 showed growth equal to 104
